- TESTED_TARGET: JAK3 (Homo sapiens, UniProt P52333)
- Sequence (P52333 795-1124 limits assumed): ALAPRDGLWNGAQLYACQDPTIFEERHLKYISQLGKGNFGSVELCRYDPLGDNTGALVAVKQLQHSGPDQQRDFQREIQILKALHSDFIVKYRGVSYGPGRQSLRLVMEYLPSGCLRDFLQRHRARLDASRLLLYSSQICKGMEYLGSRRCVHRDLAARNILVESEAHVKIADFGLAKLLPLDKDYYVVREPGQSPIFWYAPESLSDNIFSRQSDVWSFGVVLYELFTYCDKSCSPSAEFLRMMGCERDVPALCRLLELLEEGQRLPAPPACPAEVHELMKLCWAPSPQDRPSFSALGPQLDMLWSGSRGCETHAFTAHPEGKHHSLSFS
- ASSAY_PROCEDURE: Functional assay of protein Janus kinases (Caliper mobility shift), JAK3
- RUN_PARAMETERS: ATP 8 μM, incubation 30 min; read-out: JAK3 enzymatic activity (IC50) score
pIC50: −log10 of the molar value.
The entries below are paired with their reported pIC50.

O=C(NC1CCCCC1)c1cccn2c(=O)c3cc(F)ccc3nc12 :: 6.00 to 7.00
O=C(N[C@H]1CCCC[C@H]1O)c1cccn2c(=O)c3cc(Br)ccc3nc12 :: 6.00 to 7.00
CN1CCN(c2ccc3nc4c(C(=O)N[C@H]5CCCC[C@H]5O)cccn4c(=O)c3c2)CC1 :: 6.00 to 7.00
O=C(NC1CCCC1)c1cccn2c(=O)c3cc(Br)ccc3nc12 :: > 7.00

Requested field: pIC50. Item: O=C(NC1CCCC1)c1cccn2c(=O)c3cc(-c4ccncc4)ccc3nc12
6.00 to 7.00

The reported measurements were obtained from patent US11021479B2.
